target: CDK2/CyclinE1 (Homo sapiens (Human)); test: CDK2/CyclinE1 kinase inhibitory activity (Caliper mobility shift); conditions: read-out: CDK2/Cyclin El IC50
quantity kind: IC50

compound="[2H]C([2H])([2H])NS(=O)(=O)c1ccc(Nc2ncc(Br)c(OC3CCCC3O)n2)cc1 (single isomer, unassigned) [Example 143b]" quantity_kind=IC50 recorded_measurement="< 10 nM"
compound=CS(=O)(=O)N1CCC(Nc2ncc(C(F)(F)F)c(OC3CCC3)n2)CC1 quantity_kind=IC50 recorded_measurement="< 10 nM"

Next:
IC50 for [2H]C([2H])([2H])NS(=O)(=O)c1ccc(Nc2ncc(C(F)(F)F)c(O[C@H]3CCOC[C@H]3O)n2)cc1 (single isomer, unassigned) [Example 100b] is 10 to 100 nM

----------
pIC50 values for the molecules below.
molecular target: CDK1/CyclinB (Homo sapiens (Human), UniProt P06493); experiment: CDK1/CyclinB kinase inhibitory activity (Caliper mobility shift); settings: read-out: CDK1/Cyclin B1 IC50
Sequence (P06493 whole entry): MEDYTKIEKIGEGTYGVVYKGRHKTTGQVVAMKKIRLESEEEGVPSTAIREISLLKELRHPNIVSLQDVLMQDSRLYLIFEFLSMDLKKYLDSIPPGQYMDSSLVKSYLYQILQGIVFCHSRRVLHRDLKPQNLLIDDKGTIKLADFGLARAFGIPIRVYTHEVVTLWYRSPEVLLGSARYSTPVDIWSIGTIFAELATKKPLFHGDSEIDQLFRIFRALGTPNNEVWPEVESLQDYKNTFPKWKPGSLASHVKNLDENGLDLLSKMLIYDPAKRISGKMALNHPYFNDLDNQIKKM
Sequence (P14635 whole entry partner): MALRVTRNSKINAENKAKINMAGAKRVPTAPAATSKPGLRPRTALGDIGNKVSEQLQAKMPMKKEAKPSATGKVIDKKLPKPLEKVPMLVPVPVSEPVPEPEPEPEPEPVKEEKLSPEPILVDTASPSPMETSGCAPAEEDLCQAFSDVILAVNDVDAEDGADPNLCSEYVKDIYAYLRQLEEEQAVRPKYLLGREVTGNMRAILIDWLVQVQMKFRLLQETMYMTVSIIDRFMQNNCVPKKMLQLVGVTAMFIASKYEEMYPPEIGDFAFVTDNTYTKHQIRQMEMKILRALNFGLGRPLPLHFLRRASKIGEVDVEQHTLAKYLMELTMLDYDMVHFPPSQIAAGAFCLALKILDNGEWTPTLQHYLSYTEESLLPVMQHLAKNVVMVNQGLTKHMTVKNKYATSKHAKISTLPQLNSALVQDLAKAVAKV
pIC50: −log10 of the molar value.

Worked examples follow.
molecule="C[C@]1(O)COC[C@H]1Oc1nc(NC2CCN(S(C)(=O)=O)CC2)ncc1C(F)(F)F (relative stereo) [Example 104b]" recorded_measurement="6.00 to 7.00"
molecule="O=S(=O)(NC1CCOCC1)c1ccc(Nc2ncc(Cl)c(O[C@@H]3CCC[C@@H]3O)n2)cc1 (single isomer, unassigned) [Example 130b]" recorded_measurement="7.00 to 8.00"
molecule=Cn1cc(S(=O)(=O)N2CCC(Nc3ncc(C#N)c(OCC4(C)CC(F)(F)C4)n3)CC2)cn1 recorded_measurement="7.00 to 8.00"
molecule="N#Cc1cnc(Nc2ccc(S(N)(=O)=O)cc2)nc1OC1CCCC(O)C1 (single isomer, unassigned) [Example 21b]" recorded_measurement="6.00 to 7.00"
molecule="[2H]C([2H])([2H])NS(=O)(=O)c1ccc(Nc2ncc(C(F)(F)F)c(OC3CCOCCC3O)n2)cc1 (single isomer, unassigned) [Example 102b]" recorded_measurement="7.00 to 8.00"

Next:
The recorded pIC50 with CDK1/CyclinB (Homo sapiens (Human), UniProt P06493) for [2H]C([2H])([2H])NS(=O)(=O)c1ccc(Nc2ncc(C(=C)F)c(O[C@@H]3CCC[C@@H]3O)n2)cc1 (single isomer, unassigned) [Example 135a] was 7.00 to 8.00

----------
biological target: CDK2/CyclinE1 (Homo sapiens (Human), UniProt P24941); assay: CDK2/CyclinE1 kinase inhibitory activity (Caliper mobility shift); type: biochemical; settings: read-out: CDK2/Cyclin El IC50
IC50 values for the compounds below.

Worked examples follow.
compound="Cc1cnc(Nc2ccc(S(=O)(=O)NC(C)C)cc2)nc1OC1CCCC1O (single isomer, unassigned) [Example 147a]" subject_of_test="CDK2/CyclinE1 (Homo sapiens (Human), UniProt P24941)" quantity_kind=IC50 recorded_measurement="< 10 nM"
compound="N#Cc1cnc(Nc2ccc(S(N)(=O)=O)cc2)nc1OC1CCCC1O (single isomer, unassigned) [Example 20a]" subject_of_test="CDK2/CyclinE1 (Homo sapiens (Human), UniProt P24941)" quantity_kind=IC50 recorded_measurement="< 10 nM"
compound="CC1CCCC(O)C1Oc1nc(Nc2ccc(S(N)(=O)=O)cc2)ncc1C(F)(F)F (single isomer, unassigned) [Example 112b]" subject_of_test="CDK2/CyclinE1 (Homo sapiens (Human), UniProt P24941)" quantity_kind=IC50 recorded_measurement="< 10 nM"

Next:
IC50 for [2H]C([2H])([2H])NS(=O)(=O)c1ccc(Nc2ncc(C(F)(F)F)c(OC3COCCC3O)n2)cc1 (single isomer, unassigned) [Example 117b] is 10 to 100 nM
